test system: HOP-92 NSCLC; assay: NCI tumour cell line growth inhibition, 48 h
Assignment: determine reported GI50 for the given compounds.

Short answer please: GI50, HOP-92 NSCLC, entry Nc1ccn(C2CC(F)C(CO)O2)c(=O)n1 (stereo not given)
> 100 µM

Same thing, different compound: COc1ccc2c(c1)nc(NNC(=O)c1cnccn1)c1cccn12
0.952 µM

Now the same for O=c1c2cc(C(F)(F)F)ccc2sc2c(NCCCNCCO)nc3ccccc3c12
1.08 µM

Do the same for C#C[C@]1(O)CC[C@H]2[C@@H]3CC=C4c5sc(Nc6cc(F)ccc6F)nc5CC[C@]4(C)[C@H]3CC[C@@]21C please
2.06 µM

Moving on to CCC(=O)N1C/C(=C/c2ccc(Cl)cc2)C(=O)/C(=C/c2ccc(Cl)cc2)C1
1.66 µM

* * *

test system: MDA-MB-231 breast; test: NCI tumour cell line growth inhibition, 48 h
assay.metric: TGI

Which TGI value belongs to CC1CC[C@@]2(OC1)O[C@H]1[C@H](O)[C@H]3[C@@H]4CC[C@H]5C[C@@H](OC6OC(CO)C(OC7OC(CO)C(O)C(OC8OCC(O)C(O)C8O)C7OC7OC(CO)C(O)C(O)C7OC7OC(CO)C(O)C(O)C7O)C(O)C6O)[C@H](O)C[C@]5(C)[C@H]4CC[C@]3(C)[C@H]1[C@@H]2C (stereo partly drawn) ?
5.85 µM

Do the same for c1nc(NCCc2cnc[nH]2)c2[nH]cnc2n1 please
> 100 µM

Would you mind doing COc1cc2c3c(n(CCCN)c(=O)c2cc1OC)-c1ccc([N+](=O)[O-])cc1C3=O as well?
34.6 µM

# repeat for C(/C=N/NC1=NCCCCN1)=N\NC1=NCCCCN1
> 100 µM

Next compound up: CC(=O)O[C@H]1CC[C@@]2(C)C(=CC[C@@H]3[C@@H]2CC[C@]2(C)C(=N/O)/C(=C\c4ccccc4)C[C@@H]32)C1
73.2 µM

Also CNc1nnc(CCCCCCCCc2nnc(NC)o2)o1 ?
> 100 µM

Repeat with NC(=N\N=C/c1ccc(O)cc1)/C(N)=N\N=C/c1ccc(O)cc1
> 100 µM

Also CCCC[C@@H](C)/C=C1\CN2CCC[C@H]2[C@@](C)(OCc2ccccc2)[C@@H]1O ?
> 50 µM

* * *

system: RXF 393 renal; test: NCI tumour cell line growth inhibition, 48 h
assay.metric: log10(TGI) (log10 of the value in µM)
Scale type: logarithmic (base 10). Underlying TGI unit: µM.

Reported log10(TGI), compound CN1C(=O)c2ccc3ccccc3c2C1=O : ____
1.98

Then this compound: CC1=CC2C(C(O)CC3(C)C2CC(C)C32OCOC23COCO3)C2(C)C/C(=C/O)C(=O)C=C12 (stereo unspecified)
0.52

Next entry: CC(C)(C)c1ccc(C(O)CCCN2CCC(C(O)(c3ccccc3)c3ccccc3)CC2)cc1 (stereo unspecified)
0.36

Do the same for OCCCCC#Cc1ccccc1C#Cc1ccc(O)cc1 please
1.35

Moving on to the next compound: COc1cc(/C=C2\CC/C(=C\c3cc(OC)c(O)c(OC)c3)C2=O)cc(OC)c1O
0.57

Item: N#Cc1nc(-c2ccc(F)cc2)oc1S(=O)(=O)N1CCCCC1
0.53

// query: CN(Cc1cnc2nc(N)nc(N)c2n1)c1ccc(C(=O)NC23CC4CC(CC(C4)C2)C3)cc1
1.61

// next record FC(F)(F)c1cc(N(C2c3ccccc3C=Cc3ccccc32)P(Cl)Cl)cc(C(F)(F)F)c1
1.43

Subsequent entry: CC(C(=O)OCc1ccccc1)N(Cc1ccccc1)Cc1ccccc1 (stereo unspecified)
1.94

Also need COC(=O)c1c2c(c(C)[n+]([O-])c1C)C(=O)C=C(NCc1ccccc1)C2=O , thanks.
0.44

Try this compound next: Cn1cccc1-c1ccc(-c2ccc(CO)[se]2)[se]1
1.64

Now this one: COC(=O)c1cc(-c2ccccc2)[nH]c1N/N=C/c1c(Cl)cccc1Cl
1.72

Please do the same for O=c1cccccc1[O-].O=c1cccccc1[O-].O=c1cccccc1[O-].[Eu+3] as well.
1.87

Input COc1ccc(-c2c(C)c(C(=O)O)nc(-c3ccc4c(O)c(OC)c5c(c4n3)=NC(C)(C)N=5)c2N)c(O)c1OC
1.71

Request: O=c1[nH]nc(-c2ccccc2)n1/N=C/c1ccc([N+](=O)[O-])o1
0.42

And what about the compound COc1ccc2c(c1)nc(NNC(=O)c1cnccn1)c1cccn12 ?
0.39

What would you report for COc1ccc(/C=C(/c2ccccc2)[N+](=O)[O-])c(OC)c1 ?
0.48

Then Cc1ccc(/C=C/c2c(C(=O)/C=C/c3ccccc3)c(C)nc3ccccc23)cc1 ?
0.46
